Target: T1, human brain natriuretic peptide, cyclic BNP (1-32c) (human, cyclic: ring closed by a disulfide bond between the two cysteine residues; biotinylated or acridinium-labelled in some assays)
T1 construct: also called hBNP; hBNP 1-32
Assay: off-rate assay on yeast-displayed scFv by flow cytometry: biotinylated cyclic BNP (1-32c), chase with unlabelled BNP 1-32c, SA:PE, first order decay fit
Measured Property: koff (s⁻¹)
Give bare numbers, in s⁻¹.

**Query** Param item = 500-10 (scFv, selected by on/off-rate sorting; member of group m17) scFv (VH-linker-VL with V5 and 6His tags), displayed on yeast: QVQLQQPGAELVRPGASVKLSCKASGYTFTSYWMNWVKQRPEQGLEWIGRIDPYDSETHYNQKFKDKAILTVDKSSSTAFVQLTSLTSEDSAVYYCVSDGYWGAGTTVTVSSGPAKELTPLKEAKVSDVVMTQTPLTLSVTTGQPASISCKSSQSLLDSDGKTYLNWLFQRPGESPKLLIYVTDILESGVPDRFTGSGSGTDFTLKISRVEAEDLGVYYCLQATHFPWTFGGGTKLEIKRAAALESRGPFEGKPIPNPLLGLDSTRTGHHHHHH ; retrieve measured koff.
**Result** 0.00049
